src = patent US9145354B2

Each record here notes measured inhibition at 0.3 µM.
biological target: full length NS3/4a (Hepatitis C virus genotype 1b (isolate BK) (HCV), UniProt P26663); assay: NS3 Protease Assay (Example A), FRET-based; type: biochemical; details: @ 0.3 uM
Sequence (P26663 1027-1657): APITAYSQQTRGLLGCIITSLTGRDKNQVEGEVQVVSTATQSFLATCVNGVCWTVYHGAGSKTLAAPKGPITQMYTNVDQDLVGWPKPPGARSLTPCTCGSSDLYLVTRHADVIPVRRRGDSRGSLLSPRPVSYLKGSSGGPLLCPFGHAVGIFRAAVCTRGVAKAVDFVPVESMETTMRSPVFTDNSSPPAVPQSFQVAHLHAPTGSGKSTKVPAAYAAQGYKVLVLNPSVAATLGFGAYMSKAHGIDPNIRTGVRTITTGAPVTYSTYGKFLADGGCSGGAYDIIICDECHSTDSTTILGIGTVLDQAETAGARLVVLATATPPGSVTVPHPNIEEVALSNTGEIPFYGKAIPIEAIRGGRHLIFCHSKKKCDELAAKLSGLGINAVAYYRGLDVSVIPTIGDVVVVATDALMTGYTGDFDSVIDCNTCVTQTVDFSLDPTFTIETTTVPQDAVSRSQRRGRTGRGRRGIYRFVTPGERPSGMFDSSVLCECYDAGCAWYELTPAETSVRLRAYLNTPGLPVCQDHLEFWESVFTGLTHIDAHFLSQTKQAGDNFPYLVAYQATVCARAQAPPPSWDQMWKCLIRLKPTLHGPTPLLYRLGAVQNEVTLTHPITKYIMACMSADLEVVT

{"columns": ["record.smiles", "inhibition at 0.3 µM (%)"],
 "data": [
  ["CC[C@@H](N[C@H](C)CC(N)=O)c1ccc(Cl)c(C(=O)c2ccc(N)c(C)c2)c1F", 39],
  ["CC[C@@H](N[C@H](C)CC(N)=O)c1ccc(Cl)c(C(=O)c2cccc(F)c2)c1F", 58],
  ["C[C@@H](CC(N)=O)N[C@@H](c1ccc(Cl)c(C(=O)c2cnc(N)cn2)c1F)C1CC1", 28],
  ["CC[C@H](N)c1ccc(Cl)c(C(=O)c2ccccc2)c1F", 80],
  ["CC[C@@H](N[C@@H](C)CC(N)=O)c1ccc(Cl)c(C(=O)c2ccc(C(N)=O)cc2)c1F", 56]
]}
